// reported IC50 per item
TEST TARGET: Aurora-A kinase (Homo sapiens, UniProt O14965)
Sequence (O14965 1-403): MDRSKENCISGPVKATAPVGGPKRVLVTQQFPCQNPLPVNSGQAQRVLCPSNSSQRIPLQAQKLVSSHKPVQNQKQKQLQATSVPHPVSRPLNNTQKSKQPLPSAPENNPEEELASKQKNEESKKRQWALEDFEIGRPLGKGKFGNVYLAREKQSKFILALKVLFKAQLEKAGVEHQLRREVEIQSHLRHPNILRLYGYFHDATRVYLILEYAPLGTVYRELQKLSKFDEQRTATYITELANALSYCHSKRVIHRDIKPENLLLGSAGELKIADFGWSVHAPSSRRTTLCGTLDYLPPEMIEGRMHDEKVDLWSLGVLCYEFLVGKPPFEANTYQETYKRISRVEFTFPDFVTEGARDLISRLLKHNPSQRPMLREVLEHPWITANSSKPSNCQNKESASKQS
Form entry: value (nM) — number only.

COMPOUND: CCN(CCO)CCCOc1ccc2c(Nc3cnn(CC(=O)Nc4cccc(F)c4)c3)ncnc2c1
TEST TARGET: Aurora-A kinase (Homo sapiens, UniProt O14965)
VALUE REPORTED: 500
//
COMPOUND: COc1cc2c(Nc3cnn(CC(=O)Nc4cccc(F)c4)c3)ncnc2cc1OCCCN1CCC[C@@H]1CO
TEST TARGET: Aurora-A kinase (Homo sapiens, UniProt O14965)
VALUE REPORTED: 34

Kindly review the next compound as well.
Find the measured IC50 of `COc1cc2c(Nc3cnn(CC(=O)Nc4cccc(F)c4F)c3)ncnc2cc1OCCCN(CCO)CC(C)C` and report it.
10
